Origin of values: PubChem BioAssay (NCI)

Field: GI50. Provide a value for each of the molecules that follow.
system: HT29 colon; assay: NCI tumour cell line growth inhibition, 48 h

>>> val("O=c1cc(-c2ccccc2)oc2cc(O)c(O)c(O)c12")
"42.7 µM"
>>> val("CCOc1ccccc1NC(=O)c1cc2ccccc2cc1O")
"8.35 µM"
>>> val("N#C/C(=N\\Nc1ccc(Cl)cc1)C(=O)Nc1cc(-c2ccccc2)nn1-c1ccccc1")
"3.32 µM"

Then there is this molecule:
Considering Nc1ccccc1-c1ccc([N+](=O)[O-])cc1 , its GI50 with HT29 colon was recorded as 54.4 µM

###

Field: TGI. Provide a value for each of the molecules that follow.
test system: SK-MEL-5 melanoma; assay: NCI tumour cell line growth inhibition, 48 h

Each molecule below has a recorded value; state its TGI.
1. O=C1Cc2c([nH]c3c(Cl)cccc23)-c2ccccc2N1
2. COc1ccc(N(CN2C(=O)CCC2C(=O)O)C(C)=O)cc1 (stereo unspecified)
3. O=Cc1c2ccccc2n2ccc3c4ccccc4[nH]c3c12
4. Cc1ccccc1C1OC(=O)c2ccccc21 (stereo unspecified)
5. Cn1cc(C2=C(c3cccc(N)c3)C(=O)NC2=O)c2ccccc21

1: > 100 µM; 2: > 100 µM; 3: > 10 µM; 4: > 100 µM; 5: > 25 µM

Each molecule below has a recorded value; state its TGI.
1. N=C(N)c1ccc(OCCOCCOc2ccc(C(=N)N)cc2)cc1
2. Cn1ccc(C(=O)N2CCSC2=S)c(OCc2ccccc2)c1=O
3. CCOC(O)(NC(=O)C(C(F)(F)F)C(F)(F)F)C(F)(F)F (stereo unspecified)
4. COc1ccc2c(c1O)C13CCN(C)C(C2)C1CCC1(C3)OCCO1 (stereo unspecified)
5. COc1ccc(NC(=O)CC(=O)N2N=C(N(CCC#N)c3ccccc3Cl)CC2c2ccccc2)cc1 (stereo unspecified)
6. O=[N+]([O-])c1ccccc1N=Nc1c(O)[nH]c2ccc(Br)cc12

1: > 100 µM; 2: > 100 µM; 3: > 100 µM; 4: > 100 µM; 5: > 100 µM; 6: > 37.7 µM
